system: Bacillus subtilis; assay: cleaved RNA product abundance (RNA/gDNA barcode ratio) relative to median wild-type variant (ratio to wild type); higher = more accumulation of the downstream cleavage product; details: experiment (reporter, strain, medium): exp 8a: truncated aprE reporter, strain BJT201 with 2% xylose (RNase J1 expressed); cleavage site: glnRA (positions -5 to +31 mutated)
Quick reference for cleaved RNA product abundance among some sequences
# answer = number (no unit)

Before answering, review these 2 worked examples.
{"ORDERED_RESIDUES": "CGACATGTCCCGCTTCTTTCATTAATCCGTTAGCAACTGTTATGCTATATACATTTACCTTTTAAGAGGAGGAAT", "cleaved RNA product abundance": 0.695}
{"ORDERED_RESIDUES": "CGACATGTCCCGCTTCTTTCATTAATCCGTTATCAACTGATTTGCTATATACATTTACCTTTTAAGAGGAGGAAT", "cleaved RNA product abundance": 0.286}

Input CGACATGTCCCGCTTCTTTCATTAATTCGTTTGCAACTGTTTTGCTATATACATTTACCTTTTAAGAGGAGGAAT . Output cleaved RNA product abundance: 0.815

So for CGACATGTCCCGCTTCTTTCATTATTCCGTTAGCAACTGTTTTGCTAAATACATTTACCTTTTAAGAGGAGGAAT , the logged cleaved RNA product abundance turned out to be 0.93

According to the records, this sequence CGACATGTCCCGCTTCTTTCATTAATCCTTTAACAACTGTTTTGCTATATACATTTACCTTTTAAGAGGAGGAAT displays cleaved RNA product abundance of 0.154

For this sequence ( CGACATGTCCCGCTTCTTTCATTAATCCGTAAGCAACTGTTTTTCTATATACATTTACCTTTTAAGAGGAGGAAT ), measured cleaved RNA product abundance is 0.508

cleaved RNA product abundance for CGACATGTCCCGCTTCTTTCATTATTCCGTTAGCAACTGTTCTGCTATATACATTTACCTTTTAAGAGGAGGAAT is 0.551

* * *

tested on: Bacillus subtilis; assay: cleaved RNA product abundance (RNA/gDNA barcode ratio) relative to median wild-type variant (ratio to wild type); higher = more accumulation of the downstream cleavage product; conditions: experiment (reporter, strain, medium): exp 8a: truncated aprE reporter, strain BJT201 with 2% xylose (RNase J1 expressed); cleavage site: glnRA (positions -5 to +31 mutated)
Entries and their measured cleaved RNA product abundance follow.
Respond using a number only.

{"ORDERED_RESIDUES": "CGACATGTCCCGCTTCTTTCATTAATCCGTTAGCAAGTGTTTTTCTATATACATTTACCTTTTAAGAGGAGGAAT", "PROPERTY_MEASURED": "cleaved RNA product abundance", "NUMERIC_READOUT": 0.603}
{"ORDERED_RESIDUES": "CGACATGTCCCGCTTCTTTCATTAATCTGTTAGCAACTATTTTGCTATATACATTTACCTTTTAAGAGGAGGAAT", "PROPERTY_MEASURED": "cleaved RNA product abundance", "NUMERIC_READOUT": 1.77}
{"ORDERED_RESIDUES": "CGACATGTCCCGCTTCTTTCATTAATCCGTTAGCAACAATTTTGCTATATACATTTACCTTTTAAGAGGAGGAAT", "PROPERTY_MEASURED": "cleaved RNA product abundance", "NUMERIC_READOUT": 1.04}

# context switch: different sequence, same cleaved RNA product abundance
Please fill in: cleaved RNA product abundance reported for CGACATGTCCCGCTTCTTTCATTAATACATTAACAACTGTTTTGCTATATACATTTACCTTTTAAGAGGAGGAAT = 0.235

* * *

tested on: Bacillus subtilis; assay: cleaved RNA product abundance (RNA/gDNA barcode ratio) relative to median wild-type variant (ratio to wild type); higher = more accumulation of the downstream cleavage product; conditions: experiment (reporter, strain, medium): exp 2b: truncated aprE reporter, strain BJT200; cleavage site: cggR-gapA (positions -7 to +36 mutated)
PROPERTY_MEASURED: cleaved RNA product abundance
Lab note: jot down the number only; don't add units.

Example cases with answers are listed next.
{"ORDERED_RESIDUES": "ACAGACGAAGGAGCCGCATAGAAGTTATTAAGTGATGAATAATCCCTCAATATAAATATCTCTCACTTATTTAAA", "NUMERIC_READOUT": 0.121}
{"ORDERED_RESIDUES": "ACAGACGAAGGAGCCGCAAAGAAATTATTAAGGGATGAATTATCCCTCAATATAAATATCTCTCACTTATTTAAA", "NUMERIC_READOUT": 0.539}
{"ORDERED_RESIDUES": "ACAGACGAAGGAGCCGCAAAGAATTTACTAAGGGATGAATAATCCCTCAATATAAATATCTCTCACTTATTTAAA", "NUMERIC_READOUT": 0.251}
{"ORDERED_RESIDUES": "ACAGACGAAGGAGCCGCAAAGAACTTATTAAGCGATGAATAATCCCTCAATATAAATATCTCTCACTTATTTAAA", "NUMERIC_READOUT": 0.0844}
{"ORDERED_RESIDUES": "ACAGACGAAGGAGCCGCATAGAAGTTATTAATGGATGAATAATCCCTCAATATAAATATCTCTCACTTATTTAAA", "NUMERIC_READOUT": 0.142}
{"ORDERED_RESIDUES": "ACAGACGAAGGAGCCGCAAAGAAGTTATTAAGGGATGAATAATCCCTCAATATAAATATCTCTCATTATTTAAAG", "NUMERIC_READOUT": 1.06}
{"ORDERED_RESIDUES": "ACAGACGAAGGAGCCGCAAAGAAGTTATTAAGGGATGAATAATCTCACAATATAAATATCTCTCACTTATTTAAA", "NUMERIC_READOUT": 0.18}
{"ORDERED_RESIDUES": "ACAGACGAAGGAGCCGCATAGAAGTTATTAAGGGATGAATAAACCCTCAATATAAATATCTCTCACTTATTTAAA", "NUMERIC_READOUT": 0.448}
{"ORDERED_RESIDUES": "ACAGACGAAGGAGCCGCAAAGAAGTGATTAAGGGATGAATAGTCCCTCAATATAAATATCTCTCACTTATTTAAA", "NUMERIC_READOUT": 0.184}
{"ORDERED_RESIDUES": "ACAGACGAAGGAGCCGCAAAGAAGTTATTAAGGGAAGAATAATCCCTCAACATAAATATCTCTCACTTATTTAAA", "NUMERIC_READOUT": 0.133}

Item: ACAGACGAAGGAGCCGCAAAGAAGTTATTAAGGCATGAATAATCCCTCAATATAAATAACTCTCACTTATTTAAA | cleaved RNA product abundance: 0.0904

Lab note: measured cleaved RNA product abundance of ACAGACGAAGGAGCCGCAAAAAAGTTATTAAGGGATGAATAATACCTCAATATAAATATCTCTCACTTATTTAAA was 0.139

* * *

system: Bacillus subtilis; assay: cleaved RNA product abundance (RNA/gDNA barcode ratio) relative to median wild-type variant (ratio to wild type); higher = more accumulation of the downstream cleavage product; conditions: experiment (reporter, strain, medium): exp 4a: truncated aprE reporter, strain BJT201 with 2% xylose (RNase J1 expressed); cleavage site: cggR-gapA (positions -7 to +36 mutated)
Respond with TRUE for cleaved RNA product abundance values of 0.3 and above, FALSE for values below.

Example results:
{"ORDERED_RESIDUES": "ACAGACGAAGGAGCCGCAAAGAACTTATTAAGGGATGAATAATCCCTCTATATAAATATCTCTCACTTATTTAAA", "CLASS_NAME": "TRUE"}
{"ORDERED_RESIDUES": "ACAGACGAAGGAGCCGCAAAGAAATTATTAAGGGATGAATATTCCCTCAATATAAATATCTCTCACTTATTTAAA", "CLASS_NAME": "TRUE"}
{"ORDERED_RESIDUES": "ACAGACGAAGGAGCCGCAAAGAAGTTATAAAGGGATGAATAACCCCTCAATATAAATATCTCTCACTTATTTAAA", "CLASS_NAME": "FALSE"}

Query block: Hi, just wondering whether ACAGACGAAGGAGCCGCAAAGAAGTTATTAAGGGATTAATAATCCCTCAGTATAAATATCTCTCACTTATTTAAA shows cleaved RNA product abundance of 0.3 or higher.
Result block: FALSE

Query block: Decide: cleaved RNA product abundance of ACAGACGAAGGAGCCGCAAAGAATTTATTAAGGGATGAATACTCCCTCAATATAAATATCTCTCACTTATTTAAA >= 0.3?
Result block: TRUE

Query block: Hi team, for ACAGACGAAGGAGCCGCAAAGAAGTTATTAAGGGATAAATAATCACTCAATATAAATATCTCTCACTTATTTAAA , is the recorded cleaved RNA product abundance at or above 0.3?
Result block: FALSE

Query block: cleaved RNA product abundance >= 0.3 for ACAGACGAAGGAGCCGCAAAGAAGTTATAAAGGGATGAATAATCCCTGAATATAAATATCTCTCACTTATTTAAA ?
Result block: TRUE
